# METHOD_NOTES: Oral delivery of CPHPC in rats, serum CPHPC concentrations
# Format: in vivo
# ASSAY_CONDITIONS: Group 3: 0.2 mg/kg CPHPC via IV, 20 min.
REPORTED_ENDPOINT: Serum CPHPC concentration (ng/mL)

{"STRUCTURE_STRING": "O=C(O)[C@H]1CCCN1C(=O)CCCCC(=O)N1CCC[C@@H]1C(=O)O", "REPORTED_ENDPOINT": "Serum CPHPC concentration", "OBSERVED": 170}

###

# METHOD_NOTES: Oral delivery of CPHPC in rats, serum CPHPC concentrations
# Assay type: in vivo
# ASSAY_CONDITIONS: Group 1: 200 mg/kg SNAC and 10 mg/kg CPHPC via PO, 0 min.

{"STRUCTURE_STRING": "O=C(O)[C@H]1CCCN1C(=O)CCCCC(=O)N1CCC[C@@H]1C(=O)O", "Serum CPHPC concentration": "0 ng/mL"}

###

# METHOD_NOTES: Oral delivery of CPHPC in rats, serum CPHPC concentrations
# Assay type: in vivo
# ASSAY_CONDITIONS: Group 1: 200 mg/kg SNAC and 10 mg/kg CPHPC via PO, 5 min.

{"COMPOUND": "O=C(O)[C@H]1CCCN1C(=O)CCCCC(=O)N1CCC[C@@H]1C(=O)O [CPHPC]", "Serum CPHPC concentration, ng/mL": 2960}

###

# METHOD_NOTES: Oral delivery of CPHPC in rats, serum CPHPC concentrations
# Format: in vivo
# ASSAY_CONDITIONS: Group 3: 0.2 mg/kg CPHPC via IV, 10 min.

{"STRUCTURE_STRING": "O=C(O)[C@H]1CCCN1C(=O)CCCCC(=O)N1CCC[C@@H]1C(=O)O", "Serum CPHPC concentration / ng/mL": 229}

###

# METHOD_NOTES: Oral delivery of CPHPC in rats, serum CPHPC concentrations
# Format: in vivo
# ASSAY_CONDITIONS: Group 3: 0.2 mg/kg CPHPC via IV, 40 min.

{"STRUCTURE_STRING": "O=C(O)[C@H]1CCCN1C(=O)CCCCC(=O)N1CCC[C@@H]1C(=O)O", "Serum CPHPC concentration (ng/mL)": 65.4}

###

# METHOD_NOTES: Oral delivery of CPHPC in rats, serum CPHPC concentrations
# Assay type: in vivo
# ASSAY_CONDITIONS: Group 2: 10 mg/kg CPHPC alone via PO, 20 min.

{"STRUCTURE_STRING": "O=C(O)[C@H]1CCCN1C(=O)CCCCC(=O)N1CCC[C@@H]1C(=O)O", "UNIT_TEXT": "ng/mL", "Serum CPHPC concentration": 667}

###

# METHOD_NOTES: Oral delivery of CPHPC in rats, serum CPHPC concentrations
# Format: in vivo
# ASSAY_CONDITIONS: Group 2: 10 mg/kg CPHPC alone via PO, 40 min.

{"STRUCTURE_STRING": "O=C(O)[C@H]1CCCN1C(=O)CCCCC(=O)N1CCC[C@@H]1C(=O)O", "Serum CPHPC concentration": "175 ng/mL"}

###

# METHOD_NOTES: Oral delivery of CPHPC in rats, serum CPHPC concentrations
# Type: in vivo
# ASSAY_CONDITIONS: Group 1: 200 mg/kg SNAC and 10 mg/kg CPHPC via PO, 20 min.

{"STRUCTURE_STRING": "O=C(O)[C@H]1CCCN1C(=O)CCCCC(=O)N1CCC[C@@H]1C(=O)O", "UNIT_TEXT": "ng/mL", "Serum CPHPC concentration": 2800}

###

# METHOD_NOTES: Oral delivery of CPHPC in rats, serum CPHPC concentrations
# Format: in vivo
# ASSAY_CONDITIONS: Group 1: 200 mg/kg SNAC and 10 mg/kg CPHPC via PO, 40 min.

{"MOLECULE": "O=C(O)[C@H]1CCCN1C(=O)CCCCC(=O)N1CCC[C@@H]1C(=O)O [CPHPC]", "Serum CPHPC concentration (ng/mL)": 1440}

###

# METHOD_NOTES: Oral delivery of CPHPC in rats, serum CPHPC concentrations
# Format: in vivo
# ASSAY_CONDITIONS: Group 1: 200 mg/kg SNAC and 10 mg/kg CPHPC via PO, 10 min.
REPORTED_ENDPOINT: Serum CPHPC concentration (ng/mL)

{"STRUCTURE_STRING": "O=C(O)[C@H]1CCCN1C(=O)CCCCC(=O)N1CCC[C@@H]1C(=O)O", "REPORTED_ENDPOINT": "Serum CPHPC concentration", "OBSERVED": 5480}

###

# METHOD_NOTES: Oral delivery of CPHPC in rats, serum CPHPC concentrations
# Format: in vivo
# ASSAY_CONDITIONS: Group 2: 10 mg/kg CPHPC alone via PO, 10 min.
REPORTED_ENDPOINT: Serum CPHPC concentration (ng/mL)

{"COMPOUND": "O=C(O)[C@H]1CCCN1C(=O)CCCCC(=O)N1CCC[C@@H]1C(=O)O [CPHPC]", "REPORTED_ENDPOINT": "Serum CPHPC concentration", "UNIT_TEXT": "ng/mL", "OBSERVED": 1420}

###

# METHOD_NOTES: Oral delivery of CPHPC in rats, serum CPHPC concentrations
# Type: in vivo
# ASSAY_CONDITIONS: Group 2: 10 mg/kg CPHPC alone via PO, 5 min.
REPORTED_ENDPOINT: Serum CPHPC concentration (ng/mL)

{"STRUCTURE_STRING": "O=C(O)[C@H]1CCCN1C(=O)CCCCC(=O)N1CCC[C@@H]1C(=O)O", "REPORTED_ENDPOINT": "Serum CPHPC concentration", "UNIT_TEXT": "ng/mL", "OBSERVED": 1060}
